- measured target: OGG1 (Homo sapiens)
- Construct: made in house
- Sequence (O15527 whole entry): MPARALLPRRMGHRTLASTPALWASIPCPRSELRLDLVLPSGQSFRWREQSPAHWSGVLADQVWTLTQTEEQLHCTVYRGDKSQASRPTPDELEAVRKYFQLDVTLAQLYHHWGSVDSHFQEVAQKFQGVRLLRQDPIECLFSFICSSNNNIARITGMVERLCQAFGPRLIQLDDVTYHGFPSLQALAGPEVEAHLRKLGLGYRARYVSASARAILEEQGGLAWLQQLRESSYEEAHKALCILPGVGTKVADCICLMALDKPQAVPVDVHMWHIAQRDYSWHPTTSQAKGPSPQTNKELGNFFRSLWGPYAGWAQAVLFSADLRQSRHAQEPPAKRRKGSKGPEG
- experiment notes: Biochemical fluorescence (fluorophore-quencher) assay of OGG1 incision rate, 8-oxoA substrate
observation type: OGG1 activation, SAR result in words

1) NCc1c(-c2cccnc2)[nH]c2ccc(O)cc12 [Compound 39]: not tolerated
2) c1ccc2ncc(-c3cc4ccccc4[nH]3)cc2c1 [Compound 27, 3-(1H-Indol-2-yl)-quinoline]: not tolerated
3) NCCc1c(-c2cccnc2)[nH]c2ccc(C(=O)O)cc12 [Compound 37]: not tolerated

* * *

- experiment notes: Kinetic solubility assay in PBS
- Type: physicochemical
- conditions used: phosphate-buffered saline, 25 °C, pH 7.4, aqueous buffer, kinetic from dmso stock, kinetic solubility in PBS buffer (pH 7.4); read-out: aq. solubility
observation type: solubility at 2 h

1. NCCc1c(-c2cccnc2)[nH]c2ccc(O)cc12: > 300 µM

* * *

- experiment notes: Caco-2 permeability assay
- Assay type: in vitro ADME
- conditions used: human, Caco-2, pH 7.4
observation type: Papp B→A at 90 min, 10 µM (×10⁻⁶ cm/s)

1) c1ccc2c(NC3CCCCC3)nc(C3CC3)nc2c1 [TH10785, reference compound]: 4.9
2) NCCc1c(-c2cccnc2)[nH]c2ccc(O)cc12 [Compound 30]: 2.15

* * *

- experiment notes: Microsomal stability assay
- Assay type: in vitro ADME
- conditions used: pH 7.4; mouse liver microsomes
observation type: microsomal CLint at 2 μM (µL/min/mg)

1) c1ccc2c(NC3CCCCC3)nc(C3CC3)nc2c1 [TH10785, reference compound]: 347

* * *

- experiment notes: Caco-2 permeability assay
- Type: in vitro ADME
- conditions used: human, Caco-2, pH 7.4
observation type: Papp A→B at 90 min, 10 µM (×10⁻⁶ cm/s)

1. c1ccc2c(NC3CCCCC3)nc(C3CC3)nc2c1 [TH10785, reference compound]: 1.5
2. NCCc1c(-c2cccnc2)[nH]c2ccc(O)cc12: 0.53

* * *

- experiment notes: Microsomal stability assay
- Assay type: in vitro ADME, human
- conditions used: pH 7.4; human liver microsomes
observation type: k el at 2 μM (s⁻¹)

1. NCCc1c(-c2cccnc2)[nH]c2ccc(O)cc12: 5e-05

* * *

Measured microsomal CLint at 2 μM of individual entries
- experiment notes: Microsomal stability assay
- Format: in vitro ADME, human
- conditions used: pH 7.4; human liver microsomes
observation type: microsomal CLint at 2 μM

1) NCCc1c(-c2cccnc2)[nH]c2ccc(O)cc12: 8 µL/min/mg
2) c1ccc2c(NC3CCCCC3)nc(C3CC3)nc2c1 [TH10785, reference compound]: 18 µL/min/mg

* * *

- experiment notes: Kinetic solubility assay in PBS
- Type: physicochemical
- conditions used: phosphate-buffered saline, 25 °C, aqueous buffer, kinetic from dmso stock; kinetic solubility in PBS buffer (pH 7.4); read-out: aq. solubility
observation type: solubility at 2 h (µM)

1) c1ccc2c(NC3CCCCC3)nc(C3CC3)nc2c1 [TH10785, reference compound]: 6

* * *

- experiment notes: Microsomal stability assay
- Format: in vitro ADME, human
- conditions used: human, liver microsomes, pH 7.4, human microsomes; read-out: microsomal half-life / metabolic stability
observation type: half-life at 2 μM

1. NCCc1c(-c2cccnc2)[nH]c2ccc(O)cc12 [Compound 30]: > 3.5 h

* * *

- experiment notes: Microsomal stability assay
- Type: in vitro ADME, human
- conditions used: human, liver microsomes, pH 7.4, human liver microsomes; read-out: t 1/2
observation type: half-life at 2 μM (h)

1. NCCc1c(-c2cccnc2)[nH]c2ccc(O)cc12: 3.55

Data origin, for the record: paper PMC12621200
